The following binders are shown together with reported kon values.
# Measured Target: T1, cynomolgus CD8 (captured on the Octet biosensor) (cynomolgus)
# T1 construct: Construct not described; also called cyno CD8; cyno CD8a
# Method Notes: Octet (BLI); cynomolgus CD8 captured, dipped into multiple concentrations of the one-arm mAb
Give just the number in M⁻¹ s⁻¹; leave the unit off.

Example entries and their recorded answers appear below.
Need kon of XENP26243 (antibody, V domains shown, also called OKT8_H2.166_L1.103 one-arm mAb) VH: QVQLVQSGAEVKKPGASVKVSCKASGFNIKDTYIHWVRQAPGKGLEWMGRIDPDNDETLYASKFQGRVTMTADTSINTAYMELSRLRSDDTAVYYCGRGWGYYVFDHWGQGTTVTVSS VL: AIKMTQSPSSLSASVGDRVTITCRTSRSISKYLAWYQEKPGKTNKLLIYSGSTLQSGIPSRFSGSGSGTDFTLTISSLQPEDFATYYCQQHNENPLTFGAGTKLEIK , thanks.
192000

Need kon of XENP26235 (antibody, V domains shown, also called OKT8_H2.158_L1.103 one-arm mAb) VH: QVQLVQSGAEVKKPGASVKVSCKASGFNIKDTYIHWVRQAPGKGLEWMGRIDPDNGETLYASKFQGRVTMTADTSINTAYMELSRLRSDDTAVYYCGRGYGYYYFDHWGQGTTVTVSS VL: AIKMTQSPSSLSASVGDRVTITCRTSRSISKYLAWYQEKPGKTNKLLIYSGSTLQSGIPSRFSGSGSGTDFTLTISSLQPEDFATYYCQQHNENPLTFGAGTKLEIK , thanks.
143000

From here, focus on the item given below.
Need kon of XENP26236 (antibody, V domains shown, also called OKT8_H2.159_L1.103 one-arm mAb) VH: QVQLVQSGAEVKKPGASVKVSCKASGFNIKDTYIHWVRQAPGKGLEWMGRIDPDNGETLYASKFQGRVTMTADTSINTAYMELSRLRSDDTAVYYCGRGWGYYVFDHWGQGTTVTVSS VL: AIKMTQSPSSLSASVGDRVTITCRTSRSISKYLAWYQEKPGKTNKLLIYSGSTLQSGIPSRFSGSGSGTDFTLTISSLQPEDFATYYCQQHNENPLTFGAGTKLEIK , thanks.
122000
